- test.system: T1, corticotropin-releasing hormone (CRH) peptide (human and mouse, UniProt P01143 145-185 (rat entry), not fully specified)
- T1 peptide: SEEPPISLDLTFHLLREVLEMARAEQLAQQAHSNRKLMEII
- protocol.notes: cell-based or functional assay
measurement.name: hCRHR1-Luc 0.5 nM CRH IC50 (nM)
Respond numerically; units are nM and should not be typed.

IN: Determine from records and report hCRHR1-Luc 0.5 nM CRH IC50 for PR302309-2 (antibody, human IgG1, kappa, V domains shown) VH: QIQLVQSGPELKKPGETVKISCKASGYTFTNYGMNWVKQAPGKVLKWMGWINTYTGEPIYTDDFKGRFAFSLETSASTAYLQINNLKNEDTATYFCSRSTMITTGGVFAYWGQGTLVTVSA VL: DVVMTQSPLSLPVTLGQPASISCRSSQTIVHSDGNTYLEWYQQRPGQSPRLLIYKVSNRFSGVPDRFSGSGSGTDFTLKISRVEAEDLGVYYCFQGSHVPWTFGGGTKVEIKR
OUT: 0.773

IN: Quote hCRHR1-Luc 0.5 nM CRH IC50 reported for PR302309-13 (antibody, human IgG1, kappa, V domains shown) VH: QVQLVQSGSELKKPGASVKVSCKASGYTFTNYGMNWVRQAPGQGLEWMGWINTYTGEPIYTDDFKGRFVFSLDTSVSTAYLQISSLKAEDTAVYYCARSTMITTGGVFAYWGQGTLVTVSS VL: DVLMAQTPLSLPVSLGDQASISCRSSQTIVHSDGNTYLEWYLQKPGQSPKLLIYKVSNRFSGVPDRFSGSGSGTDFTLKISRVEAEDLGVYYCFQGSHVPWTFGGGTKLEIKR please.
OUT: 7.23

IN: Give reported hCRHR1-Luc 0.5 nM CRH IC50 value for PR302309-19 (antibody, human IgG1, kappa, V domains shown) VH: QIQLVQSGAEVKKPGASVKVSCKASGYTFTNYGMNWVRQAPGQRLEWMGWINTYTGEPIYTDDFKGRVTITLDTSASTAYMELSSLRSEDTAVYYCSRSTMITTGGVFAYWGQGTLVTVSS VL: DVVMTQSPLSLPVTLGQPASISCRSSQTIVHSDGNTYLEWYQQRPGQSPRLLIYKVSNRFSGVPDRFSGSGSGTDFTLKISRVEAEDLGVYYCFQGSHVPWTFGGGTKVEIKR
OUT: 4.83

IN: Give the value of hCRHR1-Luc 0.5 nM CRH IC50 reported for the following: PR302309-14 (antibody, human IgG1, kappa, V domains shown) VH: QIQLVQSGSELKKPGASVKVSCKASGYTFTNYGMNWVRQAPGQGLEWMGWINTYTGEPIYTDDFKGRFVFSLDTSVSTAYLQISSLKAEDTAVYYCSRSTMITTGGVFAYWGQGTLVTVSS VL: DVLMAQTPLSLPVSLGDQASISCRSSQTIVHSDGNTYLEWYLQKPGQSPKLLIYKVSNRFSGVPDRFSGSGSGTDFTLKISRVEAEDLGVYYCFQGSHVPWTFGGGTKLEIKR
OUT: 1.68

IN: Give hCRHR1-Luc 0.5 nM CRH IC50 for the following binder: PR302309-17 (antibody, human IgG1, kappa, V domains shown) VH: QVQLVQSGSELKKPGASVKVSCKASGYTFTNYGMNWVRQAPGQGLEWMGWINTYTGEPIYTDDFKGRFVFSLDTSVSTAYLQISSLKAEDTAVYYCARSTMITTGGVFAYWGQGTLVTVSS VL: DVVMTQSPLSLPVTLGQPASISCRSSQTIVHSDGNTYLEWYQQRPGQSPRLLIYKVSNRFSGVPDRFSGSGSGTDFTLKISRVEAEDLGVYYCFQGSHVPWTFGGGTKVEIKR
OUT: 6.69

The measurements presented in this section are drawn from patent US20250197490A1.
